Ref: patent US20040142888A1

For each record, write down the corresponding pIC50.
Target: Farnesyl Transferase (FT) (Homo sapiens, UniProt P49354+P49356)
Experiment: Biochemical assay for inhibition of farnesyl transferase (FT)
Please note pIC50 is a logarithmic value: minus log10 of concentration in mol/L. Answer with that number alone.

Give a short answer stating reported pIC50 for Cc1nc(CN(C2Cc3cc(C#N)ccc3N(Cc3cncn3C)C2)S(=O)(=O)c2ccccn2)cs1 (stereo not shown) [Compound 7T] .
8.43

Give a short answer stating reported pIC50 for Cn1cncc1CN1CC(N(CC(=O)OC(C)(C)C)S(=O)(=O)c2ccccn2)Cc2cc(C#N)ccc21 (stereo not shown) [Compound 7R] .
8.82

Give a short answer stating reported pIC50 for COc1ccc(S(=O)(=O)N2Cc3cc(C#N)ccc3N(Cc3cncn3C)C[C@H]2Cc2ccccc2)cc1 [Compound 7I] .
8.85

Give a short answer stating reported pIC50 for N#Cc1ccc2c(c1)CN(S(=O)(=O)N1CCCCC1)[C@H](Cc1ccccc1)CN2Cc1cnc[nH]1 [Compound 7B] .
8.11

###

For each record, write down the corresponding IC50.
Target: rat RabGGT (Rattus norvegicus, UniProt Q08602+Q08603)
Construct: purchased Calbiochem 345855; host or cells: Sf9/baculovirus
Test: RabGGT filter binding assay: transfer of (3H)geranylgeranyl from 3H-GGPP to recombinant Rab3A
Type: biochemical
Conditions: Table 7
Please state the figure in nM; there is no need to write the unit.

Give a short answer stating reported IC50 for CCCS(=O)(=O)N1Cc2cc(C#N)ccc2N(Cc2cnc[nH]2)C[C@H]1Cc1ccccc1 .
21

Give a short answer stating reported IC50 for Cn1cncc1CN1C[C@@H](Cc2ccccc2)N(S(=O)(=O)c2cccs2)Cc2cc(C#N)ccc21 .
12

Give a short answer stating reported IC50 for Cn1cc(S(=O)(=O)N(Cc2ccsc2)C2Cc3cc(C#N)ccc3N(Cc3cncn3C)C2)cn1 (centres unmarked) .
25

Give a short answer stating reported IC50 for N#Cc1ccc2c(c1)CN(S(=O)(=O)N1CCCCC1)[C@H](Cc1ccccc1)CN2Cc1cnc[nH]1 .
21

Give a short answer stating reported IC50 for COc1ccc(S(=O)(=O)N2Cc3cc(C#N)ccc3N(Cc3cnc[nH]3)C[C@H]2Cc2ccccc2)cc1 .
36

Give a short answer stating reported IC50 for Cn1cncc1CN1CC(NS(=O)(=O)c2ccccn2)Cc2cc(C#N)ccc21 (centres unmarked) .
73

Give a short answer stating reported IC50 for C=C(C)CN(C1Cc2cc(C#N)ccc2N(Cc2cncn2C)C1)S(=O)(=O)N1CC=CC1 (centres unmarked) .
58

Give a short answer stating reported IC50 for Cc1nc(CN(C2Cc3cc(C#N)ccc3N(Cc3cncn3C)C2)S(=O)(=O)c2ccccn2)cs1 (centres unmarked) .
1430

###

For each record, write down the corresponding EC50.
System: HCT-116 human colon tumor cells
Test: Compound-induced apoptosis in HCT-116 human colon tumor cells (microscopy for morphological markers)
Format: cell-based
Details: HCT-116, 48 h, HCT116 cells, 48 hours, minimal concentration inducing apoptotic morphological changes in 50% of treated cells, read-out: 50% APOPTOTIC
Please state the figure in µM; there is no need to write the unit.

Give a short answer stating reported EC50 for CCCS(=O)(=O)N1Cc2cc(C#N)ccc2N(Cc2cnc[nH]2)C[C@H]1Cc1ccccc1 [Compound 7H] .
0.37

Give a short answer stating reported EC50 for COc1ccc(S(=O)(=O)N2Cc3cc(C#N)ccc3N(Cc3cncn3C)C[C@H]2Cc2ccccc2)cc1 [Compound 7I] .
0.04

Give a short answer stating reported EC50 for Cc1nc(CN(C2Cc3cc(C#N)ccc3N(Cc3cncn3C)C2)S(=O)(=O)c2ccccn2)cs1 (stereo not shown) [Compound 7T] .
90

Give a short answer stating reported EC50 for Cn1cnc(S(=O)(=O)N(Cc2ccsc2)C2Cc3cc(C#N)ccc3N(Cc3cncn3C)C2)c1 (stereo not shown) [Compound 7Q] .
30

###

Biological target: rat RabGGT (Rattus norvegicus, UniProt Q08602+Q08603)
Construct: purchased Calbiochem 345855; host or cells: Sf9/baculovirus
Sequence (Q08602 1-567): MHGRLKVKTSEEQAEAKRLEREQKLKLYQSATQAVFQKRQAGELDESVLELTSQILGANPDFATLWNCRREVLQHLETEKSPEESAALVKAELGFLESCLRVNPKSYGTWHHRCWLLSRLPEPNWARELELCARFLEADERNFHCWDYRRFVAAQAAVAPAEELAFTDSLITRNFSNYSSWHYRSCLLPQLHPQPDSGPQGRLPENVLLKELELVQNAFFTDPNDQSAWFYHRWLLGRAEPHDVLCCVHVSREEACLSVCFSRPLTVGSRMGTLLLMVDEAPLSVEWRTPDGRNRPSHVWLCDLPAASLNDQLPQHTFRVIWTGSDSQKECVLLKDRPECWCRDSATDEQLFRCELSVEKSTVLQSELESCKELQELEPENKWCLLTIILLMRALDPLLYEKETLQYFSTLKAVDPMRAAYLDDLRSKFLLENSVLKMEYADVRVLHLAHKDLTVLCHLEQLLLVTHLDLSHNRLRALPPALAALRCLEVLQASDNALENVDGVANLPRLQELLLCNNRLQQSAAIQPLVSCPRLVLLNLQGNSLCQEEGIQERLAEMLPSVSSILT
Sequence (Q08603 1-331): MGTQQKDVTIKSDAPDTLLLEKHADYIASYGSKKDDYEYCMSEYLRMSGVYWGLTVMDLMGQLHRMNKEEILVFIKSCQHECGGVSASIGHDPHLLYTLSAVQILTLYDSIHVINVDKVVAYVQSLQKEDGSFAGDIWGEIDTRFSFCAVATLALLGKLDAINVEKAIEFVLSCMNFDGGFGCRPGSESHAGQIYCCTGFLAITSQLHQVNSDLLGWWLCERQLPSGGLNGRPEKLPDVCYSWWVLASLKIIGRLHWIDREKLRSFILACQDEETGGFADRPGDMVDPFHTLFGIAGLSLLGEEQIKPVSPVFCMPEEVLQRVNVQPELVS
Experiment: RabGGT filter binding assay: transfer of (3H)geranylgeranyl from 3H-GGPP to recombinant Rab3A
Format: biochemical
Settings: Table 7
MEASUREMENT_LABEL: pIC50
Please note pIC50 is a logarithmic value: minus log10 of concentration in mol/L. Answer with that number alone.

Retrieve pIC50 on rat RabGGT (Rattus norvegicus, UniProt Q08602+Q08603); query COc1ccc(S(=O)(=O)N2Cc3cc(C#N)ccc3N(Cc3cncn3C)C[C@H]2Cc2ccccc2)cc1
7.80

Retrieve pIC50 on rat RabGGT (Rattus norvegicus, UniProt Q08602+Q08603); query Cn1cnc(S(=O)(=O)N(Cc2ccsc2)C2Cc3cc(C#N)ccc3N(Cc3cncn3C)C2)c1 (stereo not shown)
7.33

Retrieve pIC50 on rat RabGGT (Rattus norvegicus, UniProt Q08602+Q08603); query Cn1cncc1CN1CC(N(CC(=O)OC(C)(C)C)S(=O)(=O)c2ccccn2)Cc2cc(C#N)ccc21 (stereo not shown)
6.27

Retrieve pIC50 on rat RabGGT (Rattus norvegicus, UniProt Q08602+Q08603); query Cn1cncc1CN1CC(N(Cc2ccsc2)S(=O)(=O)c2ccccn2)Cc2cc(C#N)ccc21 (stereo not shown)
7.08

###

System: HCT-116 human colon tumor cells
Assay: Compound-induced apoptosis in HCT-116 human colon tumor cells (microscopy for morphological markers)
Format: cell-based
Details: HCT-116, minimum concentration required to achieve apoptosis of 50% of the HCT116 cells (Table 7), read-out: HCT116 50% apoptosis
pEC50: −log10 of the molar value.
// label = Yes if pEC50 is not less than 5, otherwise No

Does the compound Cn1cncc1CN1CC(N(CC(=O)OC(C)(C)C)S(=O)(=O)c2ccccn2)Cc2cc(C#N)ccc21 (stereo not shown) [Compound 7R] have recorded pEC50 that is 5 or more?
No

Does the compound COc1ccc(S(=O)(=O)N2Cc3cc(C#N)ccc3N(Cc3cncn3C)C[C@H]2Cc2ccccc2)cc1 [Compound 7I] have recorded pEC50 that is 5 or more?
Yes

Does the compound Cn1cncc1CN1C[C@@H](Cc2ccccc2)N(S(=O)(=O)c2cccs2)Cc2cc(C#N)ccc21 [Compound 7J] have recorded pEC50 that is 5 or more?
Yes

Does the compound Cn1cnc(S(=O)(=O)N(Cc2ccsc2)C2Cc3cc(C#N)ccc3N(Cc3cncn3C)C2)c1 (stereo not shown) [Compound 7Q] have recorded pEC50 that is 5 or more?
No

Does the compound Cn1cncc1CN1CC(N(Cc2ccsc2)S(=O)(=O)c2ccccn2)Cc2cc(C#N)ccc21 (stereo not shown) [Compound 7P] have recorded pEC50 that is 5 or more?
No

Does the compound N#Cc1ccc2c(c1)CN(S(=O)(=O)N1CCCCC1)[C@H](Cc1ccccc1)CN2Cc1cnc[nH]1 [Compound 7B] have recorded pEC50 that is 5 or more?
Yes

Does the compound Cc1nc(CN(C2Cc3cc(C#N)ccc3N(Cc3cncn3C)C2)S(=O)(=O)c2ccccn2)cs1 (stereo not shown) [Compound 7T] have recorded pEC50 that is 5 or more?
No
